Data origin, for the record: ChEMBL document CHEMBL1150260

Data export: pKi values recorded with D(2) dopamine receptor (Rattus norvegicus, UniProt P61169).
Sequence (P61169 whole entry): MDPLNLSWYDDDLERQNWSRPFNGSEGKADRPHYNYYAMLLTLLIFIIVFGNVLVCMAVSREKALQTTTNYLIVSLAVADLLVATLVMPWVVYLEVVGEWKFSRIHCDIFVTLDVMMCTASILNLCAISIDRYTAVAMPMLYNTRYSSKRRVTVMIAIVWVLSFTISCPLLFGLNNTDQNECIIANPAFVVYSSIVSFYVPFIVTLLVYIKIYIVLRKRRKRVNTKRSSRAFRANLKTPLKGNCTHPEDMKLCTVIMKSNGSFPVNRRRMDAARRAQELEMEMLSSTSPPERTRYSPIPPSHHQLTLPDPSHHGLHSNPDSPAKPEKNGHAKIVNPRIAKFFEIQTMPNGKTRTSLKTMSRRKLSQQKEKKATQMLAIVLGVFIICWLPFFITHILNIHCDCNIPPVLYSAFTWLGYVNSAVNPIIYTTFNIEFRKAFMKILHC
One number for each entry, as −log10 of the molar value.

Examples with their reported pKi follow.
{"compound": "C#CCN(CCN1CCN(c2ccccc2OC)CC1)C1CCc2nc(N)sc2C1 (centres undefined)", "pKi": 7.09}
{"compound": "CCCN(CCN1CCN(c2ccc(-c3ccccc3)cc2)CC1)C1CCc2nc(N)sc2C1 (single isomer, unassigned; (-))", "pKi": 6.58}
{"compound": "CCCN(CCCCN1CCN(c2ccccc2)CC1)C1CCc2nc(N)sc2C1 (centres undefined)", "pKi": 6.11}

Provide each entry's pKi from the list below.
1. CCCN(CCN1CCN(c2ccccc2)CC1)C1CCc2nocc2C1 (centres undefined)
2. CCCN(CCN1CCN(c2ccccc2)CC1)C1CCc2c[nH]nc2C1 (centres undefined)
3. CCCN(CCN1CCN(c2ccccc2OC)CC1)C1CCc2nc(N)sc2C1 (single isomer, unassigned; (+))
4. CCCN(CCN1CCN(c2cccc(Cl)c2Cl)CC1)C1CCc2nc(N)sc2C1 (stereo in doubt; (-)-33)
5. CCCN(CCN1CCN(c2ccccc2)CC1)C1CCc2oncc2C1 (centres undefined)
6. CCCN(CCN1CCN(c2ccccc2)CC1)C1CCc2nc(N)sc2C1 (stereo in doubt; 6a)

1: 6.09; 2: 5.59; 3: 6.61; 4: 7.25; 5: 6.04; 6: 6.19
